Where do the numbers come from? From ChEMBL document CHEMBL4715934.

Assay: Metabolic stability assessed as mouse UGT -mediated metabolism by measuring half life
Format: ADME
METRIC: half-life

Consider the molecule shown here: CCC(c1nc2ncc(Cl)cc2[nH]1)[C@H]1CC[C@@H](c2ccnc3ccc(C(F)(F)F)cc32)CC1 (stereo partly specified) What is its recorded half-life?
> 120 min

* * *

Molecular target: PXR (NR1I2) (Homo sapiens)
Sequence (O75469 whole entry): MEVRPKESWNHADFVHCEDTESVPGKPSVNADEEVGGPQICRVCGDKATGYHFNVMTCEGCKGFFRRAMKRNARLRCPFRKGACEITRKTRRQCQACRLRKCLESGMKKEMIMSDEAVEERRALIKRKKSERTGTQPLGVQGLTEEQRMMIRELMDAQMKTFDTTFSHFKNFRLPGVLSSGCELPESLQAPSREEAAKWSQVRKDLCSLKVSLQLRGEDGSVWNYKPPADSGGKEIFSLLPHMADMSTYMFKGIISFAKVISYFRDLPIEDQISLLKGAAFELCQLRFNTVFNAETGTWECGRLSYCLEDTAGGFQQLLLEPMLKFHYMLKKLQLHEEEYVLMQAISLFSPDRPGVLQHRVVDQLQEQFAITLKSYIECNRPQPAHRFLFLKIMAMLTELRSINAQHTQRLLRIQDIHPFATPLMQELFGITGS
Assay: Transactivation of PXR (unknown origin) assessed as CYP450 induction relative to rifampicin
METRIC: Emax

Consider the compound shown here: CCC(Nc1nnc(-c2ccc(OC)cc2)o1)[C@H]1CC[C@H](Oc2ccnc3ccccc23)CC1 (stereo partly specified) What is its recorded Emax?
> 50%
